Ref: ChEMBL document CHEMBL1146716

- STUDY TARGET: Procathepsin L (Homo sapiens, UniProt P07711)
- Sequence (P07711 whole entry): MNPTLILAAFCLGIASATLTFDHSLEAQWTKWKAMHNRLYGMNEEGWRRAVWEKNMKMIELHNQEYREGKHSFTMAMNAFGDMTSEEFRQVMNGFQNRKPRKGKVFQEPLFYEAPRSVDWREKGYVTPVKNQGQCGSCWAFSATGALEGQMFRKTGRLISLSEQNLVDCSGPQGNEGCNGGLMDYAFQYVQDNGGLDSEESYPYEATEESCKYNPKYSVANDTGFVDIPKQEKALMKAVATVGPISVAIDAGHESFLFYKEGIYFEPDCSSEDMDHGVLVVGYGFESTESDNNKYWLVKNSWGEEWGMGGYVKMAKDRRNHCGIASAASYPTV
- TEST NAME: Inhibitory activity against recombinant human cathepsin L (1.2 nM)
Peptide text beside a SMILES is read from it. * marks the point of attachment. Cbz = O=C(OCc1ccccc1)*
METRIC NAME: IC50 (nM)
I only need the number, in nM, no unit after it.

Noted for CSCC[C@@H](C=O)NC(=O)[C@H](CC(C)C)NC(=O)OCc1ccccc1 (Cbz-Leu-Met-aldehyde) : its IC50 reads 5

---

- STUDY TARGET: Procathepsin L (Homo sapiens, UniProt P07711)
- TEST NAME: Inhibitory activity against recombinant human cathepsin L
Peptide text beside a SMILES is read from it. * marks the point of attachment. Cbz = O=C(OCc1ccccc1)*
Recorded IC50 by entry
I only need the number, in nM, no unit after it.

COMPOUND: C[C@@H](NC(=O)OCc1ccccc1)C(=O)N[C@@H](CCc1ccccc1)CNc1ccc(N2CCCCC2)cc1
IC50 (nM): 4110
--
COMPOUND: CC(C)C[C@H](NC(=O)OCc1ccccc1)C(=O)N[C@H](C=O)Cc1ccccc1 (Cbz-Leu-Phe-aldehyde)
IC50 (nM): 20
--
COMPOUND: O=C(N[C@H](CCc1ccccc1)C(=O)N[C@@H](CCc1ccccc1)CNc1ccc(N2CCCCC2)cc1)OCc1ccccc1
IC50 (nM): 9
--
COMPOUND: O=C(N[C@H](Cc1ccccc1)C(=O)N[C@@H](CCc1ccccc1)CNc1ccc(N2CCCCC2)cc1)OCc1ccccc1
IC50 (nM): 1
--
COMPOUND: O=C(N[C@H](Cc1ccc(O)cc1)C(=O)N[C@@H](CCc1ccccc1)CNc1ccc(N2CCCCC2)cc1)OCc1ccccc1
IC50 (nM): 1
--
COMPOUND: CC(C)C[C@H](NC(=O)OCc1ccccc1)C(=O)N[C@H](CNc1ccc(-c2ccccc2)cc1)Cc1ccccc1
IC50 (nM): 32
--
COMPOUND: CSCC[C@@H](C=O)NC(=O)[C@H](CC(C)C)NC(=O)OCc1ccccc1 (Cbz-Leu-Met-aldehyde)
IC50 (nM): 1.3
--
COMPOUND: CC(C)C[C@H](NC(=O)OCc1ccccc1)C(=O)N[C@H](CNc1ccccc1)Cc1ccccc1
IC50 (nM): 230

Noted for O=C(N[C@H](CC1C=Nc2ccccc21)C(=O)N[C@@H](CCc1ccccc1)CNc1ccc(N2CCCCC2)cc1)OCc1ccccc1 (stereo partly specified) : its IC50 reads 1

Noted for O=C(N[C@@H](CCc1ccccc1)CNc1ccc(N2CCCCC2)cc1)C1CCCN1C(=O)OCc1ccccc1 (stereo partly specified) : its IC50 reads 7840

---

- STUDY TARGET: Cathepsin K (Homo sapiens)
- Sequence (P43235 whole entry): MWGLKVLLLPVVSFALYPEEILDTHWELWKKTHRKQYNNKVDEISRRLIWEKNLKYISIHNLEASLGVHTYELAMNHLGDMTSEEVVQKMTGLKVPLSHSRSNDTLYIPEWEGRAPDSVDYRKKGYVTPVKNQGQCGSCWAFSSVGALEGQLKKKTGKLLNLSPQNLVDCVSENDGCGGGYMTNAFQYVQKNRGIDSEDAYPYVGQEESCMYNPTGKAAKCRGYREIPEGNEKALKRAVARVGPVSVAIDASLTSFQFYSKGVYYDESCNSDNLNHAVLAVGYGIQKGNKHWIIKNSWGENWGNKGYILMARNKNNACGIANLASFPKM
- TEST NAME: Inhibitory activity against recombinant human cathepsin K
METRIC NAME: pIC50
Scale: negative log10 of molar concentration, which is what pIC50 denotes.

Examples with answers:
MOLECULE: CC(C)C[C@H](NC(=O)OCc1ccccc1)C(=O)N[C@H](CNc1ccc(N2CCCCC2)cc1)Cc1ccccc1
READING: 8.00
--
MOLECULE: O=C(N[C@H](Cc1ccc(O)cc1)C(=O)N[C@@H](CCc1ccccc1)CNc1ccc(N2CCCCC2)cc1)OCc1ccccc1
READING: 8.10
--
MOLECULE: O=C(N[C@@H](CCc1ccccc1)CNc1ccc(N2CCCCC2)cc1)C1CCCN1C(=O)OCc1ccccc1 (stereo partly specified)
READING: 7.92
--
MOLECULE: O=C(N[C@H](Cc1ccccc1)C(=O)N[C@@H](CCc1ccccc1)CNc1ccc(N2CCCCC2)cc1)OCc1ccccc1
READING: 8.52
--
MOLECULE: CC(C)C[C@H](NC(=O)OCc1ccccc1)C(=O)N[C@H](CNc1ccc(-c2ccccc2)cc1)Cc1ccccc1
READING: 6.15

Then this molecule:
Noted for CC(C)C[C@H](NC(=O)OCc1ccccc1)C(=O)N[C@H](CNc1ccc(N2CCOCC2)cc1)Cc1ccccc1 : its pIC50 reads 7.82
